Listed next: entries and their corresponding Tmax.
# assay name: Tmax in non-fasted mouse at 1 mg/kg, po administered as cassette dosing by LC/MS/MS analysis
# Assay type: ADME, organism-based
# condition parameters: in vivo
metric: Tmax

INSERT INTO measurements (input_smiles, observed) VALUES
  ('Cn1nc(C(F)(F)F)cc1C(=O)N[C@@H]1CCN(C(=O)c2cc(Cl)c3nccnc3c2)C[C@@H]1c1ccccc1', '72 min'),
  ('COc1cc(C(=O)N2CC[C@H](NC(=O)c3ccccc3OC(F)(F)F)c3c2cnn3C(C)C)cnc1OC', '30 min');

###

# Test system: HCC4006
# assay name: Growth inhibition of human HCC4006 cells assessed as inflection point after 5 days by cell-titer-glo luminescent cell viability assay
# Assay type: functional
As shown below, each of these compounds has a reported IP value.
metric: IP (nM)

INSERT INTO results (compound, value_comparator, observed) VALUES
  ('COc1ccc(C(=O)N2CC[C@H](NC(=O)c3ccccc3Cl)[C@H](c3ccccc3)C2)cc1OC', '=', 3800),
  ('COc1ccc(C(=O)N2CCC(NC(=O)c3ccccc3Cl)c3c2cnn3C)cc1OC (racemic)', '=', 250),
  ('COc1ccc(C(=O)N2CC[C@@H](NC(=O)c3ccccc3Cl)[C@H](c3ccccc3)C2)cc1OC', '=', 570),
  ('CCCCCCC(=O)CCCCCC/C=C/C[C@@H](O)[C@H](O)[C@@](N)(CO)C(=O)O', '=', 2.1),
  ('COc1ccc(C(=O)N2CC[C@H](NC(=O)c3ccccc3Cl)[C@@H](c3ccccc3)C2)cc1OC', '>', 30000);
